assayed system: human neuropeptide Y receptor Y4 (hY4R) (human, UniProt P50391 1-375)
Sequence (P50391 whole entry): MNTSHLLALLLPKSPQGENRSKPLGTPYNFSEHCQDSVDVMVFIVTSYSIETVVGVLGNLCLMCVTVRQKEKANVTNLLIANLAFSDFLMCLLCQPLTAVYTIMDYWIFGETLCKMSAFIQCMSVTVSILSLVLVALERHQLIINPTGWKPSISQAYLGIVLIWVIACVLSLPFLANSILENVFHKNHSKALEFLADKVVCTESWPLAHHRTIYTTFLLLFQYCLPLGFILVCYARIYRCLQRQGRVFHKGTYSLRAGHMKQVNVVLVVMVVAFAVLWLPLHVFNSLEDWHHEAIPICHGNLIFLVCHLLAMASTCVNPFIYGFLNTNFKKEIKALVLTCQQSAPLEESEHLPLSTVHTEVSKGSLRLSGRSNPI
assay procedure: radioligand binding
pIC50: −log10 of the molar value. Ends that are not written are not given here.

binder: APLEPVYPGDNATPEQMAQYAKDLRRYINMLTRQRY (ends and bridges not checked) [lead peptide 2A ([Q^34]hPP core sequence, Obinepitide)]
pIC50: 9.30
